# Relative, % listing for each entry below
- Test system: Triticum aestivum variety “AC Harvest”
- Assay remarks: Growth chamber trial, grain yield after post-emergence spray application
- Assay type: in vivo
- Study conditions: grain yield relative to UTC = 100; 10 gai/ha of each active ingredient (mixtures 10 + 10)
# value in %; strip the unit string

Compound: COCC(=O)N(c1c(C)cccc1C)C(C)C(=O)OC (stereo not shown) [metalaxyl]
Reported property: Relative, %
Value units: %
Quantitative readout: 107.5
--
Compound: OC(Cc1ccccc1Cl)(Cn1nc[nH]c1=S)C1(Cl)CC1 (stereo not shown) [Prothioconazole, prothioconazole]
Reported property: Relative, %
Value units: %
Quantitative readout: 96.2
--
Compound: CC1COC(Cn2cncn2)(c2ccc(Oc3ccc(Cl)cc3)cc2Cl)O1 (stereo not shown) [Difenoconazole, difenoconazole]
Reported property: Relative, %
Value units: %
Quantitative readout: 96.2

Can you share its Relative, %? I mean this compound: CCCCCC(C)OC(=O)COc1ccc(Cl)c2cccnc12 (stereo not shown) [CQM]
103.7

Okay, and CON=C(C(=O)OC)c1ccccc1CON=C(C)c1cccc(C(F)(F)F)c1 [Trifloxystrobin, trifloxystrobin] ?
105.7

Further, for N#Cc1nn(-c2c(Cl)cc(C(F)(F)F)cc2Cl)c(N)c1[S+]([O-])C(F)(F)F (stereo not shown) [Fipronil, fipronil] ?
112.3

* * *

- System: Triiticum aestivum seeds (TRZAS)
- Assay remarks: Seed treatment trial, grain yield of plants from treated seeds
- Type: in vivo, Triticum aestivum
- Study conditions: 1 gai/kg seed
// reported Grain Yield, g/plant per item
State just the number; it will be interpreted in g/plant.

Molecule: CC1COC(Cn2cncn2)(c2ccc(Oc3ccc(Cl)cc3)cc2Cl)O1 (stereo not shown) [Difenoconazole, difenoconazole]
Grain Yield, g/plant / g/plant: 1.62
//
Molecule: COCC(=O)N(c1c(C)cccc1C)C(C)C(=O)OC (stereo not shown) [metalaxyl]
Grain Yield, g/plant / g/plant: 1.52
//
Molecule: N#Cc1c[nH]cc1-c1cccc2c1OC(F)(F)O2 [Fludioxonil, fludioxonil]
Grain Yield, g/plant / g/plant: 2.06

Here's the next entry for you.
// Grain Yield, g/plant lookup, key: CCCCCC(C)OC(=O)COc1ccc(Cl)c2cccnc12 (stereo not shown) [CQM]
1.97

* * *

- System: Triticum aestivum variety “AC Harvest”
- Assay remarks: Growth chamber trial, grain yield after post-emergence spray application
- Assay type: in vivo
- Study conditions: grain yield relative to UTC = 100; 10 gai/ha of each active ingredient (mixtures 10 + 10)
Reported property: Relative, % (%)
Number only, in %; omit the unit.

Molecule: O=[N+]([O-])NC1=NCCN1Cc1ccc(Cl)nc1 [lmidacloprid, imidacloprid]
Quantitative readout: 107.5

Relative, % of COC(=O)N(OC)c1ccccc1COc1ccn(-c2ccc(Cl)cc2)n1 [Pyraclostrobin, pyraclostrobin] on Triticum aestivum variety “AC Harvest”?
117.0

What do you have for CO/C=C(/C(=O)OC)c1ccccc1Oc1cc(Oc2ccccc2C#N)ncn1 [Azoxystrobin, azoxystrobin] ?
115.1

What do you get for CN/C(=N\[N+](=O)[O-])NCc1cnc(Cl)s1 [Clothianidin, clothianidin] ?
112.3
